target: EGFR Del19/T790M/C797S (Homo sapiens, UniProt P00533, C797S/DEL746-750/T790M); assay: Biochemical EGFR kinase inhibition assay (Lance Ultra TR-FRET), triple mutant del19/T790M/C797S; details: Km ATP; read-out: IC50 Del19/T790M/C797S (nM) Km ATP
Sequence (P00533 with tags, fused parts or gaps DEL746-750/T790M/C797S): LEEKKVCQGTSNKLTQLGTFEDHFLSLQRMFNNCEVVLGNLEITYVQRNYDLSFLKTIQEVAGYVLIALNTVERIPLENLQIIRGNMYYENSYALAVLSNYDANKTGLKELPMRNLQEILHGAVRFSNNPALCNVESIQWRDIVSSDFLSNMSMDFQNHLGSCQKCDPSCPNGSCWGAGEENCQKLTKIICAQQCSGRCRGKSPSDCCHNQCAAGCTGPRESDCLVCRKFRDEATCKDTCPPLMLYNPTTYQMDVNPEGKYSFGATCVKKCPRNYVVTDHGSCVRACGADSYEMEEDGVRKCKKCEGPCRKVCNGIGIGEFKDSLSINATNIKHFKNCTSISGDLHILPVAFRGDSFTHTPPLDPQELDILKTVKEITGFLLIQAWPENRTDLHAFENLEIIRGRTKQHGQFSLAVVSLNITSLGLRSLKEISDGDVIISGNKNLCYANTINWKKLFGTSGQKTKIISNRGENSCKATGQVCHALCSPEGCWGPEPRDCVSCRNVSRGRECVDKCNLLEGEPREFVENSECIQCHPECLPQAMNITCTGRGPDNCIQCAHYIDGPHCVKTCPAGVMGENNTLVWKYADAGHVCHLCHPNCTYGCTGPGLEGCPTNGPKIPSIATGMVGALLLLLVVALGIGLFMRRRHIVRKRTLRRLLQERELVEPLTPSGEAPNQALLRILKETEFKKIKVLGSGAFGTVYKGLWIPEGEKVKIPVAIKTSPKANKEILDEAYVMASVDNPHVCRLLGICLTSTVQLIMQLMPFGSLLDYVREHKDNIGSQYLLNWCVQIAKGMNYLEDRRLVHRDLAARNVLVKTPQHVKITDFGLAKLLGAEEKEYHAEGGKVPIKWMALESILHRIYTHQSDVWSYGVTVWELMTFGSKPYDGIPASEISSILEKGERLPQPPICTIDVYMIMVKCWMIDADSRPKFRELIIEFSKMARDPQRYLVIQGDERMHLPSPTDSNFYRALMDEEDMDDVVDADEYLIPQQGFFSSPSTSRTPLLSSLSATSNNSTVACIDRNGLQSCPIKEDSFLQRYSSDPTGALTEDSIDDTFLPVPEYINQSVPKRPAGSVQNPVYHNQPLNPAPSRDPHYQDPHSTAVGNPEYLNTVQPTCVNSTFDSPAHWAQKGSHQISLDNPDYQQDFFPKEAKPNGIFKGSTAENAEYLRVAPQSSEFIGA
readoutLabel: IC50 (nM)

CC1(CO)CCN(c2cc(Nc3ccnc(-c4cnn(S(=O)(=O)C5CC5)c4)n3)ncc2C#Cc2cnn(C3CCOCC3)c2)CC1 [Example 95] | 1.5
Cn1cc(C#Cc2cnc(Nc3ccnc(-c4cnn(S(=O)(=O)C5CC5)c4)n3)cc2N2CCCC(CO)CC2)cn1 (stereo not shown) [Example 78] | 1.6
CN(C)CCCn1cc(C#Cc2cnc(Nc3ccnc(-c4cnn(S(=O)(=O)C5CC5)c4)n3)cc2N2CCC(C)(CO)CC2)cn1 [Example 120] | 0.7
CN(C)C[C@H]1CC[C@H](CNc2cc(Nc3ccnc(-c4cnn(S(=O)(=O)C5CC5)c4)n3)ncc2C#Cc2cnn(C)c2)CC1 [Example 53] | 0.4

[P] Cn1cc(C#Cc2cnc(Nc3ccnc(-c4cnn(S(=O)(=O)C5CC5)c4)n3)cc2N2CCC(NCC(F)F)CC2)cn1 [Example 126]
[Q] O=S(=O)(C1CC1)n1cc(-c2nccc(Nc3cc(N4CCC(NCCF)CC4)c(C#Cc4cnn(C5CCOCC5)c4)cn3)n2)cn1 [Example 136]
[R] O=S(=O)(C1CC1)n1cc(-c2nccc(Nc3cc(N4CCC(F)CC4)c(C#Cc4cnn(C5CCOCC5)c4)cn3)n2)cn1 [Example 97]
## Task # sort list by recorded IC50, greatest to least Present the labels in the sequence the task asks for.
## Result R, P, Q
(R: 1.8 nM, P: 0.6 nM, Q: 0.3 nM)

###

target: EGFR L858R/T790M/C797S (Homo sapiens, UniProt P00533, C797S/L858R/T790M); test: Biochemical EGFR kinase inhibition assay (Lance Ultra TR-FRET), triple mutant L858R/T790M/C797S; conditions: ATP at Km; read-out: IC50 L858R/T790M/C797S (nM), Km ATP
Sequence (P00533 25-1210 T790M/C797S/L858R): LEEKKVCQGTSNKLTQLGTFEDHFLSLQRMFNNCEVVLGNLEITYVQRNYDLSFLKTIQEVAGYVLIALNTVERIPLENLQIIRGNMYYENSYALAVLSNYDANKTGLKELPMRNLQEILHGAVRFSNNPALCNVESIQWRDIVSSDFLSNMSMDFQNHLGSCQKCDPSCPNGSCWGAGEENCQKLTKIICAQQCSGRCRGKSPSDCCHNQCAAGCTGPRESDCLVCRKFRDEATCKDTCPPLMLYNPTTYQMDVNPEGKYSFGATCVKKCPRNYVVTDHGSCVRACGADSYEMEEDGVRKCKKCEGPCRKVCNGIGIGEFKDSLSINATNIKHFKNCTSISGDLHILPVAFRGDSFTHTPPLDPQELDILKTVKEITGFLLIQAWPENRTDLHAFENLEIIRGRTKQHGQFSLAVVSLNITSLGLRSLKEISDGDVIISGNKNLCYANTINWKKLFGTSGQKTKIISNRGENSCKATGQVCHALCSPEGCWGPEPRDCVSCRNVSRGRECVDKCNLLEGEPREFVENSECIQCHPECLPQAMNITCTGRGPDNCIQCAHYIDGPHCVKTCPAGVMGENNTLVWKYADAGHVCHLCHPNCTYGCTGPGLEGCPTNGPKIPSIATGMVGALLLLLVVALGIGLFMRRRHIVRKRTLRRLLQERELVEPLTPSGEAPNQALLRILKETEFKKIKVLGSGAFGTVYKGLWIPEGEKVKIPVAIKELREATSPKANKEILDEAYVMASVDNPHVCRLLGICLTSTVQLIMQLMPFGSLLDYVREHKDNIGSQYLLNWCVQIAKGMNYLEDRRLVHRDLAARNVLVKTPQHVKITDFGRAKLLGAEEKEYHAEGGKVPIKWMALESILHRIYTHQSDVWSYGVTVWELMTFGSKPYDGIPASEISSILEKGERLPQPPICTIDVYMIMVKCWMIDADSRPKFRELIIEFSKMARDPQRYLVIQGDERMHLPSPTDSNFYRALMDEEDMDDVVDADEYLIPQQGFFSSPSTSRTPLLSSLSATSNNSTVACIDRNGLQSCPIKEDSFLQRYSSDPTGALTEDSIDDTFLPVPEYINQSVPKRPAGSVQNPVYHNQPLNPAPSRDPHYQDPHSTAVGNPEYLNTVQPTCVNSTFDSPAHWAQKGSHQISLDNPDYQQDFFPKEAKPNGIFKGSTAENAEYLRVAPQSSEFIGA
readoutLabel: IC50 (nM)

CC1(CO)CCN(c2cc(Nc3ccnc(-c4cnn(S(=O)(=O)C5CC5)c4)n3)ncc2C#Cc2cnn(C3COC3)c2)CC1 | 0.5
CC1(CO)CCN(c2cc(Nc3ccnc(-c4cnn(S(=O)(=O)C5CC5)c4)n3)ncc2C#CC2CC2)CC1 | 0.4
CC1(CO)CCN(c2cc(Nc3ccnc(-c4cnn(S(=O)(=O)C5CC5)c4)n3)ncc2C#Cc2ccncc2)CC1 | 0.1

[1] CC(C)(O)C1CCN(c2cc(Nc3ccnc(-c4cnn(S(=O)(=O)C5CC5)c4)n3)ncc2C#Cc2cnn(C(F)(F)F)c2)CC1
[2] CC1(CO)CCN(c2cc(Nc3ccnc(-c4cnn(S(=O)(=O)C5CC5)c4)n3)ncc2C#Cc2cnc(CN3CCOCC3)s2)CC1
[3] CN1CCN(Cc2ccc(C#Cc3cnc(Nc4ccnc(-c5cnn(S(=O)(=O)C6CC6)c5)n4)cc3N3CCC(C)(CO)CC3)cn2)CC1
[4] O=S(=O)(C1CC1)n1cc(-c2nccc(Nc3cc(N[C@H]4CC[C@@H](O)CC4)c(C#Cc4ccc(CN5CCOCC5)s4)cn3)n2)cn1
## Task # sort list by recorded IC50, greatest to least Present the labels in the sequence the task asks for.
## Result 1, 4, 2, 3
(1: 1.7 nM, 4: 1 nM, 2: 0.4 nM, 3: 0.1 nM)

[A] CC(C)Nc1cc(Nc2ccnc(-c3cnn(S(=O)(=O)C4CC4)c3)n2)ncc1C#CCN1CCOCC1
[B] O=S(=O)(C1CC1)n1cc(-c2nccc(Nc3cc(N[C@H]4CC[C@@H](O)CC4)c(C#CC4(O)CCCC4)cn3)n2)cn1
[C] CCc1cnc(C#Cc2cnc(Nc3ccnc(-c4cnn(S(=O)(=O)C5CC5)c4)n3)cc2N[C@@H]2CCC[C@H](O)C2)s1
## Task # sort list by recorded IC50, greatest to least Present the labels in the sequence the task asks for.
## Result C, A, B
(C: 9.1 nM, A: 1.6 nM, B: 0.3 nM)

###

target: EGFR Del19/T790M/C797S (Homo sapiens, UniProt P00533, C797S/DEL746-750/T790M); assay: Biochemical EGFR kinase inhibition assay (Lance Ultra TR-FRET), triple mutant del19/T790M/C797S; settings: ATP at Km; read-out: IC50 Del19/T790M/C797S (nM), Km ATP
readoutLabel: IC50 (nM)

CN(C)C(=O)c1cccc(C#Cc2cnc(Nc3ccnc(-c4cnn(S(=O)(=O)C5CC5)c4)n3)cc2N2CCC(C)(CO)CC2)n1 | 0.7

[P] CC(C)(O)[C@H]1CC[C@@H](Nc2cc(Nc3ccnc(-c4cnn(S(=O)(=O)C5CC5)c4)n3)ncc2C#Cc2cnn(CC(F)F)c2)CC1
[Q] CC(C)Nc1cc(Nc2ccnc(-c3cnn(S(=O)(=O)C4CC4)c3)n2)ncc1C#CC1CCOCC1
[R] Cc1nc(C#Cc2cnc(Nc3ccnc(-c4cnn(S(=O)(=O)C5CC5)c4)n3)cc2NC(C)C)cs1
## Task # sort list by recorded IC50, greatest to least Present the labels in the sequence the task asks for.
## Result R, Q, P

###

Target: EGFR Del19/C797S (Homo sapiens, UniProt P00533, C797S/DEL746-750)
Sequence (P00533 with tags, fused parts or gaps DEL746-750/C797S): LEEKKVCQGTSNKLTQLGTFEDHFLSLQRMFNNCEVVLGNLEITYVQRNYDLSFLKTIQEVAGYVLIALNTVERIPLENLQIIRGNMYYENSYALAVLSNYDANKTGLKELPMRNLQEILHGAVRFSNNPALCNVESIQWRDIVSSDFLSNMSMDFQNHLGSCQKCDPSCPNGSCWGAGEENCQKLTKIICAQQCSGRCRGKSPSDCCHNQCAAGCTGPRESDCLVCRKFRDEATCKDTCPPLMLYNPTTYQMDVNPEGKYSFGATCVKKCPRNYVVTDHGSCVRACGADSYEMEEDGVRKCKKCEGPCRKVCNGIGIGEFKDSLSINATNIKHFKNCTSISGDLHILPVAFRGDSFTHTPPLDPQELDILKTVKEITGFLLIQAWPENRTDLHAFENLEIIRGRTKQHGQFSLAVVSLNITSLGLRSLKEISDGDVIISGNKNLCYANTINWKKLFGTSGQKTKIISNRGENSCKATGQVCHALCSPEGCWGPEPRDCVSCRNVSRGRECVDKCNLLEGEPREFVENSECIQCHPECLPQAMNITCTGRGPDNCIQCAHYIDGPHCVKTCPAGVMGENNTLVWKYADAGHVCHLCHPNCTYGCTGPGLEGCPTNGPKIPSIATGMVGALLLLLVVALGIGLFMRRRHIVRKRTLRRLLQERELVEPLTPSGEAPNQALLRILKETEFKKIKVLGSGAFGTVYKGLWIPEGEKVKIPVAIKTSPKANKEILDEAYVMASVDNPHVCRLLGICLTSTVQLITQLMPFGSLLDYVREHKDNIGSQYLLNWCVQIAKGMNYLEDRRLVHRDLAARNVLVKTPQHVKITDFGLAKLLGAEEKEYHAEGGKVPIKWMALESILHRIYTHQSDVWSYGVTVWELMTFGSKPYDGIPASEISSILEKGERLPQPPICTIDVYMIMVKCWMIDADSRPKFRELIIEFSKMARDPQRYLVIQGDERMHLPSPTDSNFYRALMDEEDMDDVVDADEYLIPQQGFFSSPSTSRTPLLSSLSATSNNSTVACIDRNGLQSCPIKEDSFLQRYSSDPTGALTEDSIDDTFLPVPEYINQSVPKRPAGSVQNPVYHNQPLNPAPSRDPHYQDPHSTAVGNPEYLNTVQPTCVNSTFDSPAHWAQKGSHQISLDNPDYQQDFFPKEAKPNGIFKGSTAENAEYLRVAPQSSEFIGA
Assay: Biochemical EGFR kinase inhibition assay (Lance Ultra TR-FRET), double mutant del19/C797S
Settings: IC50 Del19/C797S (nM), 100 μM ATP
Method: Biochemical EGFR kinase assays were conducted using Lance Ultra time-resolved fluorescence resonance energy transfer (TR-FRET) technology from Perkin-Elmer. […] Each kinase reactions were incubated at room temperature for 1 hour and then stopped by the addition of 4 μL of stop solution (10 mM EDTA). […] After 60 minutes incubation at room temperature the LANCE signal was measured on an EnVision Multilabel Reader (Perkin-Elmer). […]
readoutLabel: IC50 (nM)

Take a look at these entries with their results.
CC1(C#Cc2cnc(Nc3ccnc(-c4cnn(S(=O)(=O)C5CC5)c4)n3)cc2NC[C@H]2CC[C@H](O)CC2)CC1 | 140
CS(=O)(=O)N1CCC(C#Cc2cnc(Nc3ccnc(-c4cnn(S(=O)(=O)C5CC5)c4)n3)cc2NCC2CCC(CO)CC2)C1 (stereo not drawn) | 35.6
C[C@]1(O)CCCN(c2cc(Nc3ccnc(-c4cnn(S(=O)(=O)C5CC5)c4)n3)ncc2C#Cc2cnn(CCF)c2)C1 | 2.1

[P] CN(C)C[C@H]1CC[C@@H](Nc2cc(Nc3ccnc(-c4cnn(S(=O)(=O)C5CC5)c4)n3)ncc2C#Cc2cnn(C(F)F)c2)CC1
[Q] CS(=O)(=O)N1CCC(C#Cc2cnc(Nc3ccnc(-c4cnn(S(=O)(=O)C5CC5)c4)n3)cc2NC[C@H]2CC[C@H](CO)CC2)CC1
## Task Compare P and Q and name the one whose reported IC50 is smaller. Could you answer with the label of the item you picked?
## Result P
(P: 4.2 nM, Q: 127 nM)

###

target: EGFR Del19/T790M/C797S (Homo sapiens, UniProt P00533, C797S/DEL746-750/T790M); experiment: Biochemical EGFR kinase inhibition assay (Lance Ultra TR-FRET), triple mutant del19/T790M/C797S; details: IC50 Del19/T790M/C797S (nM), 100 μM ATP
readoutLabel: IC50 (nM)

Take a look at these entries with their results.
CC(C)(O)[C@H]1CC[C@@H](Nc2cc(Nc3ccnc(-c4cnn(S(=O)(=O)C5CC5)c4)n3)ncc2C#Cc2cnn(CC(F)F)c2)CC1 [Example 325] | 1.1
CN(C)CCn1cc(C#Cc2cnc(Nc3ccnc(-c4cnn(S(=O)(=O)C5CC5)c4)n3)cc2N2CCC(C)(CO)CC2)cn1 [Example 116] | 0.4

[a] CN1CCC(C#Cc2cnc(Nc3ccnc(-c4cnn(S(=O)(=O)C5CC5)c4)n3)cc2N2CCC3(CCCO3)CC2)C1 (stereo not drawn) [Example 372]
[b] Cn1ccc(C#Cc2cnc(Nc3ccnc(-c4cnn(S(=O)(=O)C5CC5)c4)n3)cc2N2CCC(C)(CO)CC2)n1 [Example 107]
[c] CC1(O)CC2(CCN(c3cc(Nc4ccnc(-c5cnn(S(=O)(=O)C6CC6)c5)n4)ncc3C#Cc3cnn(CC(F)(F)F)c3)CC2)C1 [Example 347]
[d] CN1CCC(C#Cc2cnc(Nc3ccnc(-c4cnn(S(=O)(=O)C5CC5)c4)n3)cc2N2CCC(C)(CO)CC2)CC1 [Example 182]
## Task # sort list by recorded IC50, greatest to least Present the labels in the sequence the task asks for.
## Result c, b, a, d
(c: 6 nM, b: 1.2 nM, a: 0.3 nM, d: 0.1 nM)

###

molecular target: EGFR L858R/C797S (Homo sapiens, UniProt P00533, C797S/L858R); assay: Biochemical EGFR kinase inhibition assay (Lance Ultra TR-FRET), double mutant L858R/C797S; conditions: IC50 L858R/C797S (nM), 100 μM ATP
Sequence (P00533 25-1210 C797S/L858R): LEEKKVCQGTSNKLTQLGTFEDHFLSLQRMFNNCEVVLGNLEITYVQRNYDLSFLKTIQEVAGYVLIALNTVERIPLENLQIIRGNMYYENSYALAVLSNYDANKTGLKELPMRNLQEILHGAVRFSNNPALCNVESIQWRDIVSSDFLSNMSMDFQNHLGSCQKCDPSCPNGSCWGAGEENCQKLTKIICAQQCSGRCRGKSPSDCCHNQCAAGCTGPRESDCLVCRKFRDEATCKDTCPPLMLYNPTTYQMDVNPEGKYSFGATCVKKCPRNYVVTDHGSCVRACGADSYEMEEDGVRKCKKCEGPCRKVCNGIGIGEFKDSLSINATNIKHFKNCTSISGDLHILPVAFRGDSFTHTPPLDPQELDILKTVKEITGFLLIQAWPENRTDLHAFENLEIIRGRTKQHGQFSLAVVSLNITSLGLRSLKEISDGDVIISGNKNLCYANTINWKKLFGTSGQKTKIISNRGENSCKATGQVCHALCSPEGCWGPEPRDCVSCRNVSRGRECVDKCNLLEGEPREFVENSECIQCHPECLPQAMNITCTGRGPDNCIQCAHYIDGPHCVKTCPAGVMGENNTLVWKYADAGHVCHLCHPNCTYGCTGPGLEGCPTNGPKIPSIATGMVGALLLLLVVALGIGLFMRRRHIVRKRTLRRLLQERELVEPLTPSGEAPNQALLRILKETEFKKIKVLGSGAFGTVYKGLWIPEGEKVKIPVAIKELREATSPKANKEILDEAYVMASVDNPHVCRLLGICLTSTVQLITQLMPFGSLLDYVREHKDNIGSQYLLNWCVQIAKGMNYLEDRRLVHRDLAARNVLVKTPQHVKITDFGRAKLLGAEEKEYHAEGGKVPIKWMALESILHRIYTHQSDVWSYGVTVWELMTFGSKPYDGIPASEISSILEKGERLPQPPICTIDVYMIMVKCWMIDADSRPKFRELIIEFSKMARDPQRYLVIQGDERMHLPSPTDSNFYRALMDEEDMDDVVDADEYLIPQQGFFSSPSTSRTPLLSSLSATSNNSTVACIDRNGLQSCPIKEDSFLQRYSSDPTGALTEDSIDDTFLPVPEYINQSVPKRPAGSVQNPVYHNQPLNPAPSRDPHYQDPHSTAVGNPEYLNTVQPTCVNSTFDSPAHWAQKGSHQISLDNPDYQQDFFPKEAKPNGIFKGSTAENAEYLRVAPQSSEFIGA
readoutLabel: IC50 (nM)

Take a look at these entries with their results.
CN(C)S(=O)(=O)n1cc(-c2nccc(Nc3cc(N4CCC(C)(CO)CC4)c(C#Cc4cnn(C(F)(F)F)c4)cn3)n2)cn1 | 198
O=S(=O)(C1CC1)n1cc(-c2nccc(Nc3cc(N4CCC(CCO)CC4)c(C#Cc4cnn(CCF)c4)cn3)n2)cn1 | 53.3
COC1(O)CCN(c2cc(Nc3ccnc(-c4cnn(S(=O)(=O)C5CC5)c4)n3)ncc2C#Cc2ccc(CN3CCN(C)CC3)cc2)CC1 | 6.4

[a] CC(=O)N1CCC(n2cc(C#Cc3cnc(Nc4ccnc(-c5cnn(S(=O)(=O)C6CC6)c5)n4)cc3N3CCC(=O)CC3)cn2)CC1
[b] Cn1cc(C#Cc2cnc(Nc3ccnc(-c4cnn(S(=O)(=O)C5CC5)c4)n3)cc2N[C@@H]2CCC[C@@H](O)C2)cn1
## Task Between these two entries, a and b , state which has the higher IC50. Could you answer with the label of the item you picked?
## Result b

Data credit: patent US11981658B2
